Give % Inhibit growth, H37Rv for every item shown.
Tested on: M. tuberculosis
Test: microbe, parasite or virus in culture
Type: cell-based, Mycobacterium tuberculosis
Parameters: dose or concentration left out as unconfirmed
Details: strain H37Rv; agar proportion method
Give the number; % is assumed, so skip it.

Inquiry: // query % Inhibit growth, H37Rv value for entry O=C(Nc1sc([N+](=O)[O-])cc1[N+](=O)[O-])c1cccc(C(F)(F)F)c1 [VPC16b1092]
Reply text: 100

Inquiry: What measured % Inhibit growth, H37Rv goes with O=C(Nc1ncc([N+](=O)[O-])s1)c1cc2ccccc2s1 [VPC161180] ?
Reply text: 80

Inquiry: Which measured % Inhibit growth, H37Rv value corresponds to O=C(Nc1nc(Cl)c([N+](=O)[O-])s1)c1ccccc1 [VPC162087] ?
Reply text: 97

Inquiry: Request the reported % Inhibit growth, H37Rv associated with CCCCCC(=O)Nc1sc([N+](=O)[O-])cc1[N+](=O)[O-] [VPC16b1089]
Reply text: 0

Inquiry: I would be grateful if you could share the reported % Inhibit growth, H37Rv for CCCCCC(=O)Nc1nc(Cl)c([N+](=O)[O-])s1 [VPC162080] .
Reply text: 90

* * *

System: Mycobacterium tuberculosis
Assay: microbe, parasite or virus in culture
Conditions: isolate 971 (MDR-TB), agar proportion
Assignment: determine reported MIC for the given compounds.

Inquiry: // lookup MIC for "O=C(Nc1sc([N+](=O)[O-])cc1[N+](=O)[O-])c1ccccc1"
Reply text: 2000 µg/mL

Inquiry: Can you look up the measured MIC of CO[C@H]1/C=C/O[C@@]2(C)Oc3c(C)c(O)c4c(O)c(c(/C=N/N5CCN(C)CC5)c(O)c4c3C2=O)NC(=O)/C(C)=C\C=C\[C@H](C)[C@H](O)[C@@H](C)[C@@H](O)[C@@H](C)[C@H](OC(C)=O)[C@@H]1C [Rifampin, reference compound] for me?
Reply text: ≥ 32000 µg/mL

Inquiry: What measured MIC goes with NNC(=O)c1ccncc1 [Isoniazid, reference compound] ?
Reply text: 4000 µg/mL

Inquiry: MIC for "O=C(Nc1sc([N+](=O)[O-])cc1[N+](=O)[O-])c1ccoc1" ?
Reply text: 4000 µg/mL

* * *

Test system: Mycobacterium tuberculosis
Assay: microbe, parasite or virus in culture
Conditions: H37RV, isolate H37Rv (Reference), agar proportion
observation-type: MIC (µg/mL)
Please state the figure in µg/mL; there is no need to write the unit.

Inquiry: Find the recorded MIC belonging to "O=C(Nc1sc([N+](=O)[O-])cc1[N+](=O)[O-])c1ccoc1" and report it.
Reply text: 4000

Inquiry: # MIC lookup, item "O=C(Nc1sc([N+](=O)[O-])cc1[N+](=O)[O-])c1ccccc1"
Reply text: 4000

* * *

System: M. tuberculosis
Assay: microbe, parasite or virus in culture
Format: cell-based, Mycobacterium tuberculosis
Design: dose or concentration left out as unconfirmed
Settings: Mycobacterium tuberculosis, read-out: % Inhibit growth, MDR
For each entry below, report its inhibition value.
Respond with the figure and its unit, in that order.

Inquiry: # query: inhibition of entry "O=C(Nc1ncc([N+](=O)[O-])s1)c1cccc(C(F)(F)F)c1"
Reply text: 70%

Inquiry: Suppose we examine the compound "O=C(Nc1nc(Cl)c([N+](=O)[O-])s1)c1cccc(C(F)(F)F)c1" ; what inhibition value has been reported?
Reply text: 90%

Inquiry: Item under review: "O=C(Nc1ncc([N+](=O)[O-])s1)c1ccc(Cl)c(C(F)(F)F)c1" . Reported inhibition?
Reply text: 98%

Inquiry: Give the measured inhibition of "O=C(Nc1sc([N+](=O)[O-])cc1[N+](=O)[O-])c1ccccc1" .
Reply text: 100%

Inquiry: Given the compound "O=C(Nc1sc([N+](=O)[O-])cc1[N+](=O)[O-])c1ccoc1" , what is its reported inhibition?
Reply text: 100%

Inquiry: Would you kindly share the measured inhibition for "CC(C)(C)OC(=O)Nc1ccccc1C(=O)Nc1ncc([N+](=O)[O-])s1" ?
Reply text: 92%

Inquiry: Quick one: inhibition for "O=C(Nc1sc([N+](=O)[O-])cc1[N+](=O)[O-])c1cccs1" ?
Reply text: 100%

* * *

Please go through the items and note down their MIC.
All answers are understood in µg/mL, so give the number only.

Inquiry: Tell me reported MIC for "O=C(Nc1sc([N+](=O)[O-])cc1[N+](=O)[O-])c1ccoc1" , tested with Mycobacterium marinum ATCC 927.
Reply text: 4

Inquiry: What value of MIC on Mycobacterium marinum ATCC 927 does "O=C(Nc1sc([N+](=O)[O-])cc1[N+](=O)[O-])c1ccccc1" have?
Reply text: 4

Inquiry: Recall the recorded MIC for "O=C(Nc1sc([N+](=O)[O-])cc1[N+](=O)[O-])c1cccs1" with Mycobacterium marinum ATCC 927 and state it.
Reply text: 31

Inquiry: Mycobacterium marinum ATCC 927 / MIC / CC(=O)Oc1ccccc1C(=O)Nc1ncc([N+](=O)[O-])s1 [Nitazoxanide, reference compound] : value?
Reply text: 31

Inquiry: Give recorded MIC with Mycobacterium marinum ATCC 927 for the following compound: "O=C(Nc1nc(Cl)c([N+](=O)[O-])s1)c1cccc(C(F)(F)F)c1"
Reply text: 31

Inquiry: Hello, I am looking for reported MIC with Mycobacterium marinum ATCC 927 for "O=C(Nc1sc([N+](=O)[O-])cc1[N+](=O)[O-])c1cc(C(F)(F)F)ccc1Cl" . Could you help?
Reply text: 8

Inquiry: Hello, I am looking for reported MIC with Mycobacterium marinum ATCC 927 for "NCCOc1ccccc1C(=O)Nc1sc([N+](=O)[O-])cc1[N+](=O)[O-]" . Could you help?
Reply text: 16

* * *

Test system: M. tuberculosis
Assay: microbe, parasite or virus in culture
Assay type: cell-based, Mycobacterium tuberculosis
Parameters: dose or concentration left out as unconfirmed
Conditions: MDR strain; agar proportion method
Exercise: for every item that follows, state its recorded % Inhibit growth, MDR.
Only the number, expressed in %, is required.

Inquiry: Quick one: % Inhibit growth, MDR of CCCCCC(=O)Nc1sc([N+](=O)[O-])cc1[N+](=O)[O-] [VPC16b1089] ?
Reply text: 0

Inquiry: I have this compound here, CCCCCC(=O)Nc1nc(Cl)c([N+](=O)[O-])s1 [VPC162080] , and I need its recorded % Inhibit growth, MDR.
Reply text: 95

Inquiry: May I ask what % Inhibit growth, MDR has been recorded for O=C(Nc1nc(Cl)c([N+](=O)[O-])s1)c1ccccc1 [VPC162087] ?
Reply text: 100

Inquiry: // lookup % Inhibit growth, MDR for O=C(Nc1ncc([N+](=O)[O-])s1)c1cc2ccccc2s1 [VPC161180]
Reply text: 0

Inquiry: Look up % Inhibit growth, MDR: O=C(Nc1sc([N+](=O)[O-])cc1[N+](=O)[O-])c1cccc(C(F)(F)F)c1 [VPC16b1092]
Reply text: 100

* * *

Tested on: Mycobacterium tuberculosis
Assay: microbe, parasite or virus in culture
Conditions: isolate 750 (MDR-TB), agar proportion
observation-type: MIC (µg/mL)
The figure you give is taken to be in µg/mL; do not add the unit.

Inquiry: What measured MIC goes with NNC(=O)c1ccncc1 [Isoniazid, reference compound] ?
Reply text: 8000

Inquiry: Name the recorded MIC for "O=C(Nc1sc([N+](=O)[O-])cc1[N+](=O)[O-])c1ccoc1" .
Reply text: 4000

Inquiry: Requested read-out: MIC. Entry: "O=C(Nc1sc([N+](=O)[O-])cc1[N+](=O)[O-])c1ccccc1"
Reply text: 4000
